# Assayed system: Lysine--tRNA ligase (Homo sapiens)
# Sequence (Q15046 whole entry): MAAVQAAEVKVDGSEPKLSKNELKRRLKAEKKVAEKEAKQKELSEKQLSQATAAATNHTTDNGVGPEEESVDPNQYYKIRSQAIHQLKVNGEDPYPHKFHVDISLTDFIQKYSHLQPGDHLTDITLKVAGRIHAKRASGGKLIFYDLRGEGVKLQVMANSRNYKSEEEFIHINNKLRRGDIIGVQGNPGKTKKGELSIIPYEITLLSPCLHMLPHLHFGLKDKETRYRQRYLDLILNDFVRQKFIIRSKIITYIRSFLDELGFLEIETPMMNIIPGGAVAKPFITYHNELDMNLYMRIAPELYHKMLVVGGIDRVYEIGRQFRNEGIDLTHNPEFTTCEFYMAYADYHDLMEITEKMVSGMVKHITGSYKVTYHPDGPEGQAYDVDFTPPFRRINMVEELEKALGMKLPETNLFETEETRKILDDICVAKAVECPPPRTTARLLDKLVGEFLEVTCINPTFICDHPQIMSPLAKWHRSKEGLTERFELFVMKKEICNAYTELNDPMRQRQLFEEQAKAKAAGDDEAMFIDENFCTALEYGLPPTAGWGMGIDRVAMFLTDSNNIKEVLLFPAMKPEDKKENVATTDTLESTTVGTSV
Entries and their measured IC50 follow.
Please state the figure in µM; there is no need to write the unit.

Compound | IC50 / µM
COC(=O)C1=C(C)NC(C)=C(C(=O)OCC(C)C)C1c1ccccc1[N+](=O)[O-] (stereo unspecified) | 450
COC(=O)C1=C(C)NC(C)=C(C(=O)OC2CCCN(Cc3ccccc3)C2)C1c1cccc([N+](=O)[O-])c1 (stereo unspecified) | 450
COC(=O)C1=C(C)NC(C)=C(C(=O)OC(C)(C)CN(C)CCC(c2ccccc2)c2ccccc2)C1c1cccc([N+](=O)[O-])c1 (stereo unspecified) | 320
CCOC(=O)C1=C(C)NC(C)=C(C(=O)OCC)C1c1ccccc1/C=C/C(=O)OC(C)(C)C | 65
COCCOC(=O)C1=C(C)NC(C)=C(C(=O)OC/C=C/c2ccccc2)C1c1cccc([N+](=O)[O-])c1 (stereo unspecified) | 400

Then this compound:
What value of IC50 has been reported for the following compound? COC(=O)C1=C(C)NC(C)=C(C(=O)OCCN2CCN(C(c3ccccc3)c3ccccc3)CC2)C1c1cccc([N+](=O)[O-])c1 (stereo unspecified) 400

Value source: BindingDB's records for patent US20230414632
